IC50 by entry:
# measured.on: Transient receptor potential cation channel subfamily V member 1 (Homo sapiens)
# test: Antagonist activity at human recombinant TRPV1 receptor expressed in HEK293 cells assessed as inhibition of capsaicin-induced intracellular calcium elevation
Express it in µM; write the number only.

Example entries and their recorded answers appear below.
CCCCC/C=C\C/C=C\C/C=C\C/C=C\CCCC(=O)NCCc1c[nH]c2ccc(O)cc12: 0.27
CCCCCc1cccc(NC(=O)NCCc2c[nH]c3ccc(O)cc23)c1: 2.63
CCCCCc1cccc(OC(=O)NCCc2c[nH]c3ccc(O)cc23)c1: 2.4

Next compound, please.
What IC50 value was documented for this compound, `CCCCCCCC/C=C\CCCCCCCC(=O)NCCc1c[nH]c2ccc(O)cc12` ?
2.57

###

log10(IC50) listing for selected compounds.
# measured.on: Transient receptor potential cation channel subfamily V member 1 (Homo sapiens, UniProt Q8NER1)
# Sequence (Q8NER1 whole entry): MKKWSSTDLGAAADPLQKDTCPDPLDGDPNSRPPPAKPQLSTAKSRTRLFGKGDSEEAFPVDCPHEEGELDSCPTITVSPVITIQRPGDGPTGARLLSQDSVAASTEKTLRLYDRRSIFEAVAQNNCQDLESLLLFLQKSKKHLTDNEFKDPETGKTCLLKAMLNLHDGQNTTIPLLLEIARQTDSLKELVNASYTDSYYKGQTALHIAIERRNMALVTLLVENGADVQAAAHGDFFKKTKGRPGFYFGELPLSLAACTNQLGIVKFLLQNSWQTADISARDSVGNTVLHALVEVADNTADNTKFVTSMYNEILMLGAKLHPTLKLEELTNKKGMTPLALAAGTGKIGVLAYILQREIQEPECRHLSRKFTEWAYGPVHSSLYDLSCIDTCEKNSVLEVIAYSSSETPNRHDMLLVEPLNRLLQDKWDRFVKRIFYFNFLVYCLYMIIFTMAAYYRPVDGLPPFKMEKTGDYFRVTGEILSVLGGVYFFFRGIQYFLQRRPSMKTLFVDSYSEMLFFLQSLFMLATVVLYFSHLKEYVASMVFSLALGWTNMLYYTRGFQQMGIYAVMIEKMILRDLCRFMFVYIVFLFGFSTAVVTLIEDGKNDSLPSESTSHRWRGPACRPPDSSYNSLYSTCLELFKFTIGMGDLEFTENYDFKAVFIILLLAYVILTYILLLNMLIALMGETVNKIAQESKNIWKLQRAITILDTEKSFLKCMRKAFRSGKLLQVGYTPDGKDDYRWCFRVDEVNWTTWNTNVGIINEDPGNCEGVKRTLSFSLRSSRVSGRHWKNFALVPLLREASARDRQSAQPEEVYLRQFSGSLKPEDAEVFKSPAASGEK
# test: Antagonist activity at human recombinant TRPV1 receptor expressed in HEK293 cells assessed as inhibition of capsaicin-induced intracellular calcium elevation
Log scale reminder: IC50 in nM, then log10 taken.

CC(C)(C)c1ccc(OC(=O)NCCc2c[nH]c3ccc(O)cc23)cc1: 3.72
CCCCCCCCCCCC(=O)NCCc1c[nH]c2ccc(O)cc12: 2.87
O=C(Cc1cccc(-c2ccccc2)c1)NCCc1c[nH]c2ccc(O)cc12: 2.63
CCCCCc1cccc(CC(=O)NCCc2c[nH]c3ccc(O)cc23)c1: 2.38
CC(C)(C)c1ccc(CNC(=O)NCCc2c[nH]c3ccc(O)cc23)cc1: 3.58

Reported log10(IC50) for `CCCCC/C=C\C/C=C\C/C=C\C/C=C\CCCCOC(=O)NCCc1c[nH]c2ccc(O)cc12` : what is it?
3.45

Any idea what log10(IC50) was measured for `CCCCC/C=C\C/C=C\CCCCCCCC(=O)NCCc1c[nH]c2ccc(O)cc12` ?
3.26

Using the record for `O=C(NCCc1c[nH]c2ccc(O)cc12)Nc1cccc(-c2ccccc2)c1` , report its log10(IC50).
2.86

Item `O=C(CCCCCCCc1ccccc1)NCCc1c[nH]c2ccc(O)cc12` has what recorded log10(IC50)?
3.33

Suppose we examine the compound `CC/C=C\C/C=C\C/C=C\CCCCCCCC(=O)NCCc1c[nH]c2ccc(O)cc12` ; what log10(IC50) value has been reported?
2.67

###

# measured.on: Fatty-acid amide hydrolase 1 (Rattus norvegicus, UniProt P97612)
# Sequence (P97612 whole entry): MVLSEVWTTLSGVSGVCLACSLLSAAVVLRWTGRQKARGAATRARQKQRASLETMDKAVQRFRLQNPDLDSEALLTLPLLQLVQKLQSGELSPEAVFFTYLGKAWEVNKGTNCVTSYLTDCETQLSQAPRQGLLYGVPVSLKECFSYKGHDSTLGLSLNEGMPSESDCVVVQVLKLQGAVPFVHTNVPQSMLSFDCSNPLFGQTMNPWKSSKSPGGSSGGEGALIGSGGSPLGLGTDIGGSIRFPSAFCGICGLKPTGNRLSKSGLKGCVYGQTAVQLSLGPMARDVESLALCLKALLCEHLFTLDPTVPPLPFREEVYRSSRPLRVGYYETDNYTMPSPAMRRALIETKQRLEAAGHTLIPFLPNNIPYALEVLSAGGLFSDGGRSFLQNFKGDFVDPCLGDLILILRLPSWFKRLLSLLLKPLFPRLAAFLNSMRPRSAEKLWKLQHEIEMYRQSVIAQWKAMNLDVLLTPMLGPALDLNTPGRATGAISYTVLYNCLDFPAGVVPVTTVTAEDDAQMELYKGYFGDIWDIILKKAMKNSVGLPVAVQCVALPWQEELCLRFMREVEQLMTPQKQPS
readout.label: IC50 (µM)
Number in µM, nothing else.

Use the examples below as a reference point.
O=C(NCCc1c[nH]c2ccc(O)cc12)Oc1ccc(Cl)cc1: 6.8
O=C(NCCc1c[nH]c2ccc(O)cc12)Oc1cccc(C(F)(F)F)c1: 2.2
CCCCC/C=C\C/C=C\C/C=C\C/C=C\CCCC(=O)NCCc1c[nH]c2ccc(O)cc12: 8

Give its IC50 value. Item: `CC(C)(C)c1ccc(CNC(=O)NCCc2c[nH]c3ccc(O)cc23)cc1`
50

Attribution: ChEMBL document CHEMBL1138335
